# Test system: A549
# Assay method text: Antiproliferative activity against human A549 cells assessed as cell viability after 72 hrs by MTT assay
# Assay type: functional, cell-based
# Test conditions: A549, 72 h
pIC50: −log10 of the molar value.
# pIC50 listing for each entry below
Assay readout: pIC50

> print(dat)
                                    compound  assay.readout  inequality.operator  number
 1                COn1cc(CNC(=S)SC)c2ccccc21          pIC50                    <    4.00
 2  CC(C)(C)OC(=O)n1cc(CNC(=S)N2CCOCC2)c2ccccc21          pIC50                    <    4.00
 3  COc1ccc(NC(=S)NCc2cn(C(=O)OC(C)(C)C)c3ccccc23)cc1          pIC50                    <    4.00
 4                 CSC(=S)NCc1c[nH]c2ccccc12          pIC50                    <    4.00
 5  CN(C1=NC[C@]2(S1)c1ccccc1N(C(=O)OC(C)(C)C)[C@@H]2O)c1ccccc1 (racemic)          pIC50                    <    4.00
 6  CO[C@@H]1N(C(=O)OC(C)(C)C)c2ccccc2[C@@]12CN=C(Nc1cc(C(F)(F)F)cc(C(F)(F)F)c1)S2 (racemic)          pIC50                    =    4.54
 7  CO[C@@H]1N(C(=O)OC(C)(C)C)c2ccccc2[C@@]12CN=C(Nc1ccc(Br)cc1)S2 (racemic)          pIC50                    =    4.12
 8  CO[C@H]1N(C(=O)OC(C)(C)C)c2ccccc2[C@@]12CN=C(Nc1ccc([N+](=O)[O-])cc1)S2 (racemic)          pIC50                    =    4.48
 9  CC(C)(C)OC(=O)N1c2ccccc2[C@@]2(CN=C(Nc3ccccc3)S2)[C@H]1O (racemic)          pIC50                    =    4.13
10    COc1ccc(NC2=NCc3c([nH]c4ccccc34)S2)cc1          pIC50                    =    4.52
11     Fc1ccc(NC2=NCc3c([nH]c4ccccc34)S2)cc1          pIC50                    =    4.54
12               CNC1=NCc2c([nH]c3ccccc23)S1          pIC50                    =    4.36
